# TARGET OR TEST SYSTEM: Ionotropic glutamate receptor NMDA 1/2D (Rattus norvegicus) (UniProt P35439+Q62645)
# PROTOCOL TEXT: Positive allosteric modulation of recombinant rat GluN1a/GluN2D receptor expressed in Xenopus laevis oocytes assessed as increase in glycine/L-glutamate-induced channel current at 30 uM by two-electrode voltage clamp method relative to control
# Assay type: cell-based
QUANTITY: %max (%)
The response must be a number in % with no trailing unit.

[
  {
    "COMPOUND": "COc1ccc(OCC2c3ccc(OCC(C)C)cc3CC(=O)N2Cc2cccc(Cl)c2)cc1 (stereo not given)",
    "%max / %": 370
  },
  {
    "COMPOUND": "COc1ccc(OCC2c3ccsc3CCN2C(=S)c2cccc(Cl)c2)cc1 (stereo not given)",
    "%max / %": 94
  },
  {
    "COMPOUND": "COc1ccc(OC[C@@H]2c3cccn3CCN2C(=O)c2cccc(Cl)c2)cc1",
    "%max / %": 99
  },
  {
    "COMPOUND": "COc1cc2c(cc1OC)C(COc1ncccn1)N(C(=O)c1cccc(C(F)(F)F)c1)CC2 (stereo not given)",
    "%max / %": 95
  },
  {
    "COMPOUND": "COc1cc2c(cc1OC)C(CO)N(C(=O)c1cccc(C(F)(F)F)c1)CC2 (stereo not given)",
    "%max / %": 95
  },
  {
    "COMPOUND": "COc1ccc(OCC2c3sccc3CCN2C(=O)c2ccc(Cl)s2)cc1 (stereo not given)",
    "%max / %": 400
  },
  {
    "COMPOUND": "COc1ccc(OCC2c3cccn3CC(=S)N2Cc2cccc(C(F)(F)F)c2)cc1 (stereo not given)",
    "%max / %": 110
  },
  {
    "COMPOUND": "COc1ccc(OCC2c3ccc(OC(C)C)cc3CC(=O)N2Cc2cccc(F)c2)cc1 (stereo not given)",
    "%max / %": 330
  }
]

Ask | Look up %max: COc1ccc(OC[C@H]2c3cccn3CCN2C(=O)c2cccc(Cl)c2)cc1
Reply | 450

Ask | Look up %max: COc1ccc(OCC2c3ccc(OC(C)C)cc3CC(=O)N2Cc2cccc(C(F)(F)F)c2)cc1 (stereo not given)
Reply | 310

* * *

# TARGET OR TEST SYSTEM: Glutamate NMDA receptor; Grin1/Grin2c (Rattus norvegicus) (UniProt P35439+Q00961)
# PROTOCOL TEXT: Positive allosteric modulation of recombinant rat GluN1a/GluN2C receptor expressed in Xenopus laevis oocytes assessed as increase in glycine/L-glutamate-induced channel current at 30 uM by two-electrode voltage clamp method relative to control
# Format: cell-based
QUANTITY: %max (%)
The response must be a number in % with no trailing unit.

Worked cases, answers included:
[
  {
    "COMPOUND": "COc1ccc(OCC2c3sc(C)nc3CCN2C(=O)c2cccc(Cl)c2)cc1 (configuration not stated)",
    "UNITS": "%",
    "%max": 100
  },
  {
    "COMPOUND": "COc1ccc(OCC2c3ccc(OC(C)C)cc3CCN2C(=O)c2cccc(Cl)c2)cc1 (configuration not stated)",
    "UNITS": "%",
    "%max": 240
  },
  {
    "COMPOUND": "COCCOCCN1C(=O)Cc2cc(OC)ccc2C1COc1ccc(OC)cc1 (configuration not stated)",
    "UNITS": "%",
    "%max": 98
  },
  {
    "COMPOUND": "COc1ccc(OCC2c3cccn3CC(=O)N2Cc2cccc(C(F)(F)F)c2)cc1 (configuration not stated)",
    "UNITS": "%",
    "%max": 300
  },
  {
    "COMPOUND": "COc1cc2c(cc1OC)C(CO)N(C(=O)c1cccc(C(F)(F)F)c1)CC2 (configuration not stated)",
    "UNITS": "%",
    "%max": 98
  },
  {
    "COMPOUND": "COc1ccc(OC[C@@H]2c3cccn3CC(=O)N2Cc2cccc(F)c2)cc1",
    "UNITS": "%",
    "%max": 100
  }
]

Ask | Look up %max: COc1ccc(OCC2c3cc(OC)c(OC)cc3CCN2C(=O)c2cccc(Cl)c2)cc1 (configuration not stated)
Reply | 230

Ask | Look up %max: COc1cc2c(cc1OC)C(COc1ccccn1)N(C(=O)c1cccc(C(F)(F)F)c1)CC2 (configuration not stated)
Reply | 96

Ask | Look up %max: COc1cc2c(cc1OC)C(COC1CCOCC1)N(C(=O)c1cccc(C(F)(F)F)c1)CC2 (configuration not stated)
Reply | 100

Ask | Look up %max: COc1ccc(OCC2c3ccc(OC)cc3CC(=O)N2CC(F)(F)F)cc1 (configuration not stated)
Reply | 330

Ask | Look up %max: COc1ccc(OCC2c3cnn(C)c3CCN2C(=O)c2cccc(Cl)c2)cc1 (configuration not stated)
Reply | 210

Ask | Look up %max: COc1ccc(OCC2c3sccc3CCN2C(=O)c2ccc(Cl)s2)cc1 (configuration not stated)
Reply | 290

Ask | Look up %max: COc1ccc(OCC2c3cccn3CC(=S)N2Cc2cccc(C(F)(F)F)c2)cc1 (configuration not stated)
Reply | 120

* * *

# TARGET OR TEST SYSTEM: Ionotropic glutamate receptor NMDA 1/2D (Rattus norvegicus) (UniProt P35439+Q62645)
# PROTOCOL TEXT: Positive allosteric modulation of recombinant rat GluN1a/GluN2D receptor expressed in Xenopus laevis oocytes assessed as increase in glycine/L-glutamate-induced channel current at 30 uM by two-electrode voltage clamp method relative to control
# Format: cell-based
QUANTITY: %max (%)
The response must be a number in % with no trailing unit.

Worked cases, answers included:
[
  {
    "COMPOUND": "COc1ccc(OCC2c3sccc3CCN2C(=O)/C=C/C(F)(F)F)cc1 (configuration not stated)",
    "TARGET OR TEST SYSTEM": "Ionotropic glutamate receptor NMDA 1/2D (Rattus norvegicus) (UniProt P35439+Q62645)",
    "%max, %": 330
  },
  {
    "COMPOUND": "COc1ccc(OCC2c3cc(OC)c(OC)cc3CCN2C(=O)c2cccc(Cl)c2)cc1 (configuration not stated)",
    "TARGET OR TEST SYSTEM": "Ionotropic glutamate receptor NMDA 1/2D (Rattus norvegicus) (UniProt P35439+Q62645)",
    "%max, %": 220
  },
  {
    "COMPOUND": "COc1ccc(OC[C@@H]2c3cccn3CCN2C(=O)c2cccc(C(F)(F)F)c2)cc1",
    "TARGET OR TEST SYSTEM": "Ionotropic glutamate receptor NMDA 1/2D (Rattus norvegicus) (UniProt P35439+Q62645)",
    "%max, %": 98
  },
  {
    "COMPOUND": "COc1ccc(OC[C@@H]2c3cccn3CC(=O)N2Cc2cccc(F)c2)cc1",
    "TARGET OR TEST SYSTEM": "Ionotropic glutamate receptor NMDA 1/2D (Rattus norvegicus) (UniProt P35439+Q62645)",
    "%max, %": 88
  },
  {
    "COMPOUND": "COc1ccc(OCC2c3ccc(OC)cc3CC(=O)N2Cc2cccc(Cl)c2)cc1 (configuration not stated)",
    "TARGET OR TEST SYSTEM": "Ionotropic glutamate receptor NMDA 1/2D (Rattus norvegicus) (UniProt P35439+Q62645)",
    "%max, %": 330
  }
]

Ask | Look up %max: CCCN1C(=O)Cc2cc(OC)ccc2C1COc1ccc(OC)cc1 (configuration not stated)
Reply | 94

Ask | Look up %max: COc1ccc(OCC2c3sccc3CCN2C(=O)c2cccc(Cl)c2)cc1 (configuration not stated)
Reply | 350

* * *

Each item that follows carries a reported %max.
# TARGET OR TEST SYSTEM: Glutamate NMDA receptor; Grin1/Grin2c (Rattus norvegicus) (UniProt P35439+Q00961)
# PROTOCOL TEXT: Positive allosteric modulation of recombinant rat GluN1a/GluN2C receptor expressed in Xenopus laevis oocytes assessed as increase in glycine/L-glutamate-induced channel current at 30 uM by two-electrode voltage clamp method relative to control
# Assay type: cell-based
The response must be a number in % with no trailing unit.

Worked cases, answers included:
[
  {
    "COMPOUND": "COc1ccc(OCC2c3ccc(OC)cc3CC(=O)N2Cc2cccc(Cl)c2)cc1 (stereo unspecified)",
    "UNITS": "%",
    "%max": 270
  },
  {
    "COMPOUND": "COc1ccc(OCC2c3cc(OC)c(OC)cc3CCN2C(=O)c2cccc(Cl)c2)s1 (stereo unspecified)",
    "UNITS": "%",
    "%max": 100
  },
  {
    "COMPOUND": "COc1ccc(OC[C@H]2c3cccn3CC(=O)N2Cc2cccc(C(F)(F)F)c2)cc1",
    "UNITS": "%",
    "%max": 280
  },
  {
    "COMPOUND": "COc1ccc(OC[C@@H]2c3cccn3CCN2C(=O)c2cccc(C(F)(F)F)c2)cc1",
    "UNITS": "%",
    "%max": 99
  },
  {
    "COMPOUND": "CCCN1C(=O)Cc2cc(OC)ccc2C1COc1ccc(OC)cc1 (stereo unspecified)",
    "UNITS": "%",
    "%max": 97
  },
  {
    "COMPOUND": "COc1cc2c(cc1OC)C(COc1ncccn1)N(C(=O)c1cccc(C(F)(F)F)c1)CC2 (stereo unspecified)",
    "UNITS": "%",
    "%max": 97
  }
]

Ask | Look up %max: COc1ccc(OCC2c3cc(OC)c(OC)cc3CC(=O)N2Cc2cccc(Cl)c2)cc1 (stereo unspecified)
Reply | 270

Ask | Look up %max: COc1ccc(OC[C@@H]2c3cccn3CCN2C(=O)c2cccc(Cl)c2)cc1
Reply | 98

Ask | Look up %max: COc1ccc(OCC2c3ccsc3CCN2C(=S)c2cccc(Cl)c2)cc1 (stereo unspecified)
Reply | 97

Ask | Look up %max: COc1ccc(OCC2c3sccc3CCN2C(=O)c2cccc(Cl)c2)cc1 (stereo unspecified)
Reply | 280

Ask | Look up %max: COc1ccc(OCC2c3cccn3CCN2C(=O)c2cccc(Cl)c2)cc1 (stereo unspecified)
Reply | 370

Ask | Look up %max: COc1ccc(OCC2c3ccc(OC)cc3CC(=O)N2CCCC(F)(F)F)cc1 (stereo unspecified)
Reply | 290

Ask | Look up %max: COc1ccc(OCC2c3cccn3CC(=O)N2Cc2cccc(F)c2)cc1 (stereo unspecified)
Reply | 350

Reference source: ChEMBL document CHEMBL4627400
